target: Proteinase-activated receptor 1 (Homo sapiens, UniProt P25116); assay: Displacement of [3H]haTRAP from PAR1 in human platelet membranes after 60 mins by scintillation counting analysis
Sequence (P25116 whole entry): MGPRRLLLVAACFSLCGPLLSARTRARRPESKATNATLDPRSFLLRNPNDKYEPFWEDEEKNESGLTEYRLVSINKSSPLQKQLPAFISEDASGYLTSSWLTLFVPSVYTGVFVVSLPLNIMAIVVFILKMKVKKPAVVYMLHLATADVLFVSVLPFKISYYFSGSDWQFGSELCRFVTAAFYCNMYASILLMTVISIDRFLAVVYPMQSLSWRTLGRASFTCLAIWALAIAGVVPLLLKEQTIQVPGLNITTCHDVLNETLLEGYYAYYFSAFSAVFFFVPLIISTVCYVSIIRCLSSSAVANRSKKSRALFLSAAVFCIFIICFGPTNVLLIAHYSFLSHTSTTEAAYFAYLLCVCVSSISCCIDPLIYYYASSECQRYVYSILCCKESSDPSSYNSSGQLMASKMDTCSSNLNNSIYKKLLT
experimental-endpoint: IC50 (nM)

INSERT INTO measurements (compound, recorded_measurement) VALUES
  ('NC1C[C@@H]2CCCC[C@@H]2[C@H]1/C=C/c1ccc(-c2cccc(F)c2)cn1 (mixture of isomers)', 230),
  ('Fc1cccc(-c2ccc(/C=C/[C@H]3[C@H]4CCCC[C@H]4CC34OCCO4)nc2)c1 (racemic)', 2100),
  ('Fc1cccc(-c2ccc(/C=C/[C@@H]3[C@H]4CCCC[C@@H]4CC34OCCO4)nc2)c1 (racemic)', 470),
  ('CS(=O)(=O)OC1C[C@@H]2CCCC[C@@H]2[C@H]1/C=C/c1ccc(-c2cccc(F)c2)cn1 (mixture of isomers)', 6.4),
  ('Fc1cccc(-c2ccc(/C=C/[C@@H]3[C@H]4CCCC[C@H]4CC34OCCO4)nc2)c1 (racemic)', 26),
  ('CC(=O)NC1C[C@@H]2CCCC[C@@H]2[C@H]1/C=C/c1ccc(-c2cccc(F)c2)cn1 (mixture of isomers)', 53),
  ('O=C(Nc1ccccc1)OC1C[C@@H]2CCCC[C@@H]2[C@H]1/C=C/c1ccc(-c2cccc(F)c2)cn1 (mixture of isomers)', 360),
  ('COC1C[C@@H]2CCCC[C@@H]2[C@H]1/C=C/c1ccc(-c2cccc(F)c2)cn1 (mixture of isomers)', 67);
